Quick reference for % β-catenin induction among some compounds
- Tested on: d-U937 cells
- assay.procedure: Accumulation of β catenin in d-U937 cells (assay m)
- Format: cell-based, human
- conditions.used: test compound 10 μg/mL; percentage relative to Reference Compound at 1 μg/mL
observed.property: % β-catenin induction (%)

compound=COc1c(CC(N)=O)cc(C(C)(C)C)cc1NC(=O)Nc1ccc(Oc2ccnc(NCc3ccccn3)c2)c2ccccc12 units_label=% numeric_value=30.0
compound=COCCOCCOCCOc1cc(Nc2nccc(Oc3ccc(NC(=O)Nc4cc(C(C)(C)C)cc(CC(N)=O)c4OC)c4ccccc34)n2)cc(OC)c1 units_label=% numeric_value=33.0
compound="COc1cccc(Nc2cc(Oc3ccc(NC(=O)Nc4cc(C(C)(C)C)cc([S+](C)[O-])c4OC)c4ccccc34)ccn2)c1 (centres unmarked)" units_label=% numeric_value=1.5
compound=COc1c(NC(=O)Nc2ccc(Oc3ccnc(NCc4ccccc4)n3)c3ccccc23)cc(C(C)(C)C)cc1P(C)(C)=O units_label=% numeric_value=38.0
compound=C#Cc1cc(Nc2cc(Oc3ccc(NC(=O)Nc4cc(C(C)(C)C)cc(P(C)(C)=O)c4OC)c4ccccc34)ccn2)cc(C(=O)NCCOCCOCCOC)c1 units_label=% numeric_value=7.3

Where do these numbers come from? They come from patent US9890185B2.
